experimental_target: T1, PUF4 RNA-binding domain (Saccharomyces cerevisiae, UniProt P25339 537-888)
T1 sequence: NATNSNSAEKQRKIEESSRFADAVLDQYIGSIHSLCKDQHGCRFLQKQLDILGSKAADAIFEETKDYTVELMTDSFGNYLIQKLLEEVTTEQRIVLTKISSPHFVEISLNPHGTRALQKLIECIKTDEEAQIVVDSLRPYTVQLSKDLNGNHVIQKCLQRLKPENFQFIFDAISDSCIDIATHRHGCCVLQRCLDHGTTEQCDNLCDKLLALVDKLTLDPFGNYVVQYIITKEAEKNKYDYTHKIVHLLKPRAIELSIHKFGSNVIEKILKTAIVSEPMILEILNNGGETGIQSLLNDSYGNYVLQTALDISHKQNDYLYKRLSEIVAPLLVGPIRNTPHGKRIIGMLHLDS
assay_overview: Mg; RNA-MaP; 20 mM Na-HEPES pH 7.4, 30 mM KOAc, 0.75 mM MgCl2, 0.1% Tween-20, 5% glycerol, 0.1 mg/mL BSA, 2 mM DTT; 25 C; 0.0125-409.6 nM protein
setup_conditions: tags: N-His6-TEV cleaved; C-SNAP kept, Cy3B-labelled; label: tethered on chip by stalled RNA polymerase
Note to self: use Condition met only for Kd readings below 100 nM; a reading exactly at 100 nM still gets Condition not met.

// known answers, use as guide
1) Ib_S4_P5E.1_K5.1_C5.1_H5.1_[G2C]_A5.1_[T5A]_F5.1_T5.1 (ssRNA) RNA: UUUGACAACUGAUCGUUCUUUCUUCUAAUAUUAUUCUUUCUCGAUCAGUUGUCUUU | Condition not met
2) UCUCUUUGUAAUGUUUUCUCUU (ssRNA) [Ic_S1_P5E.1_K5.1_C5.1_H5.1_A5.1_[T5A]_[A7G]_F5.1_[A10T]_T5.1] | Condition not met
3) Id_ii_S4_P3E.3_K3.2_C3.2_[C-2G]_[T-1C]_H3.2_A3.1_F3.1_T3.2_[A10T] (ssRNA) RNA: UUUGACAACUGAUCGUUCUUUCUGCUAUAUAUAUUUUCUUUCUCGAUCAGUUGUCUUU | Condition not met
4) Ic_S4_P5E.1_K5.1_C5.1_H5.1_A5.1_[T5A]_[T6C]_[A7T]_F5.1_[T8A]_[T9A]_T5.1 (ssRNA) RNA: UUUGACAACUGAUCGUUCUUUCUUGUAACUAAAUUCUUUCUCGAUCAGUUGUCUUU | Condition not met
5) UCUCUUUGUAACAGCUCUCUU (ssRNA) [Ic_S1_P4E.1_K4.1_C4.1_H4.1_A4.1_[T5A]_[A6C]_[T7A]_F4.1_[T8G]_[A9C]_T4.1] | Condition not met
6) Ic_S4_P5E.1_K5.1_C5.1_H5.1_A5.1_[T5A]_[T6A]_[A7T]_F5.1_[T8C]_[T9C]_[A10G]_T5.1 (ssRNA) RNA: UUUGACAACUGAUCGUUCUUUCUUGUAAAUCCGUUCUUUCUCGAUCAGUUGUCUUU | Condition not met

# input # strict comparison: is reported Kd < 100 nM? input = UCUCUUUGUAUUCUCUAUUAUCUCUU (ssRNA) [Ie_S1_P5E.1_K5.1_C5.1_H5.1_A5.1_[+5TCTC]_F5.1_T5.1]
# output Condition met

# input Item UCUCUUUUUAUAUAUUACGUCUCUU (ssRNA) [Id_ii_S1_P4E.3_K4.2_C4.2_[C-2T]_H4.2_A4.1_F4.1_T4.2_[G10C]_[T11G]] : Kd beneath 100 nM, strictly?
# output Condition met
